This collection of values is drawn from patent US20040106545A1.

- MEASURED ON: T1, chick N-cadherin expressed on transfected 3T3 cells (chick, UniProt P10288 165-912)
- T1 sequence (looked up): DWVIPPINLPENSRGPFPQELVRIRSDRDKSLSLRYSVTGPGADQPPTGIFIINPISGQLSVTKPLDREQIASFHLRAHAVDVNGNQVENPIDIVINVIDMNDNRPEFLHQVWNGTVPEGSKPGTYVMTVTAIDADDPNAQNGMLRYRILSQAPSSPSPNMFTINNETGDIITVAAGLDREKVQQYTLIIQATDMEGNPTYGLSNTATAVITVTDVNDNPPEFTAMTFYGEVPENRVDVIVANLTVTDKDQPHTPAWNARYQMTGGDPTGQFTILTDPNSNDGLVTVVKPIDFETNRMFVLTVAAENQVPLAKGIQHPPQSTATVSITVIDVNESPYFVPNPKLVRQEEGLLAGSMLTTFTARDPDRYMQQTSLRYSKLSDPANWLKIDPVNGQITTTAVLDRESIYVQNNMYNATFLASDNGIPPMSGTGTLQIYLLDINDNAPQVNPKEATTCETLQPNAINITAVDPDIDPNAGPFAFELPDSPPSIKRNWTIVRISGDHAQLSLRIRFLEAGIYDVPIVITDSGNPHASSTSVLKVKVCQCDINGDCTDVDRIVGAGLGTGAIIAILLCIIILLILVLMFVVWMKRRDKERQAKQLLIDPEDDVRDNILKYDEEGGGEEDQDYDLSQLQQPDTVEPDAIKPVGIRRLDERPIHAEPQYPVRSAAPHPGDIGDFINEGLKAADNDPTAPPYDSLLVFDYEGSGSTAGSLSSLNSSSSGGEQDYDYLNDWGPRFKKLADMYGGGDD
- ASSAY: cell-based or functional assay
Positions of bridges follow the written chain, without caps; N, C: chain ends.
READOUT KIND: % inhibition of neurite outgrowth (peptide 125 µg/mL) (%)

- BINDER: "Ac-CHAVPC-NH2 (disulfide 1-6 (inferred)) [N-Ac-CHAVPC-NH2]"
  RECORDED VALUE: 58
- BINDER: "Ac-CHAVDC-NH2 (disulfide 1-6 (inferred)) [N-Ac-CHAVDC-NH2]"
  RECORDED VALUE: 77.1
- BINDER: "Ac-CHAVDINC-NH2 (disulfide 1-8 (inferred)) [N-Ac-CHAVDINC-NH2]"
  RECORDED VALUE: 62
